Below is a list of entries, each paired with its recorded pIC50 (FF) value.
assayed system: RORγ (UniProt P51449)
test method notes: RORγ Gal4 Reporter Gene Assay in 293T cells (firefly and renilla luciferase)
Type: cell-based, human
stated conditions: second value of the cell; Gal4 reporter gene assay in 293T cells, firefly luciferase

>  <compound>
Cc1c(C(=O)NC2CNC(=O)C23CCOCC3)cc(-c2ccc(S(=O)(=O)NC(C)(C)C)c(C(F)(F)F)c2)n1CC1CCCCC1 (stereo not shown)

>  <qualifying sign>
=

>  <pIC50 (FF)>
6.6

$$$$
>  <compound>
Cc1c(C(=O)N[C@H]2C[C@H](C(=O)O)C2)cc(-c2ccc(-c3ccnn3C(C)C)c(C(C)(C)C)c2)n1CC1CCCCC1

>  <qualifying sign>
=

>  <pIC50 (FF)>
7.9

$$$$
>  <compound>
Cc1c(C(=O)NC2SC(=O)NC2=O)cc(-c2cc(C(C)(C)C)c3c(c2)C2(CCO3)CC2)n1CC1CCCCC1 (stereo not shown)

>  <qualifying sign>
=

>  <pIC50 (FF)>
5.8

$$$$
>  <compound>
Cc1c(C(=O)NC2CCOCC2)cc(-c2ccc(S(=O)(=O)NC(C)(C)C)c(C(F)(F)F)c2)n1[C@H](C)C1CCCCC1

>  <qualifying sign>
=

>  <pIC50 (FF)>
6.6

$$$$
>  <compound>
COC(=O)C(C)(C)CCNC(=O)c1cc(-c2cc(C(C)(C)C)cc(C3(C)CC3)c2)n(CC2CCCCC2)c1F

>  <qualifying sign>
=

>  <pIC50 (FF)>
6.9

$$$$
>  <compound>
CC(=NO)c1cc(-c2cc(C(=O)NC3CCOCC3)c(C)n2CC2CCCCC2)cc(C(C)(C)C)c1

>  <qualifying sign>
=

>  <pIC50 (FF)>
7.5

$$$$
>  <compound>
Cc1c(S(=O)(=O)NC(C)(C)C)ccc(-c2cc(C(=O)NCCC(C)(C)C(=O)O)c(C)n2CC2CCCCC2)c1OC(F)F

>  <qualifying sign>
=

>  <pIC50 (FF)>
7.3

$$$$
>  <compound>
Cc1c(C(=O)NCC(C)(C)C(N)=O)cc(-c2ccc(S(=O)(=O)NC(C)(C)C)c(C(F)(F)F)c2)n1CC1CCCCC1

>  <qualifying sign>
=

>  <pIC50 (FF)>
7.7

$$$$
>  <compound>
Cc1c(C(=O)NC2COC2)cc(-c2cnc(NCC(C)(C)C)c(C(F)(F)F)c2)n1CC1CCCCC1

>  <qualifying sign>
=

>  <pIC50 (FF)>
6.3

$$$$
>  <compound>
Cc1c(C(=O)NC2CCOCC2)cc(-c2cc(S(=O)(=O)N3CCCCC3)c3ccccn23)n1CC1CCCCC1

>  <qualifying sign>
=

>  <pIC50 (FF)>
6.9

$$$$
>  <compound>
COCc1c(C(=O)NCC(C)(C)O)cc(-c2ccc(S(=O)(=O)NC(C)(C)C)c(C(C)(C)C)c2)n1CC1CCCCC1

>  <qualifying sign>
=

>  <pIC50 (FF)>
6.7

$$$$
>  <compound>
Cc1c(C(=O)NC2COC2)cc(-c2cc(C(C)(C)C)cc(C3(C)CC3)c2)n1CC1CCCCC1

>  <qualifying sign>
=

>  <pIC50 (FF)>
7.4

$$$$
>  <compound>
Cc1c(C(=O)NCC(C)(C)O)cc(-c2ccc(S(=O)(=O)N(C)C(C)(C)C)c(C(C)(C)C)c2)n1CC1CCCCC1

>  <qualifying sign>
=

>  <pIC50 (FF)>
7.2

$$$$
>  <compound>
Cc1c(C(=O)NCCC(C)(C)C(=O)O)cc(-c2ccc(S(=O)(=O)NC(C)(C)C)c(OC(F)(F)F)c2)n1CC1CCCCC1

>  <qualifying sign>
=

>  <pIC50 (FF)>
7.5

$$$$
>  <compound>
Cc1c(C(=O)NC2CC2)cc(-c2cc(C(C)(C)C)cc(C3(C)CC3)c2)n1CC1CCCCC1

>  <qualifying sign>
=

>  <pIC50 (FF)>
6.9

$$$$
>  <compound>
Cc1c(C(=O)N[C@H]2C[C@H](C(=O)O)C2)cc(-c2ccc(S(=O)(=O)NC(C)(C)C)c(C(C)(C)O)c2)n1CC1CCCCC1

>  <qualifying sign>
=

>  <pIC50 (FF)>
6.6

$$$$
>  <compound>
Cc1c(C(=O)NCC2(C(=O)O)CCOCC2)cc(-c2cc(C(C)(C)C)cc(C3(C)CC3)c2)n1CC1CCCCC1

>  <qualifying sign>
=

>  <pIC50 (FF)>
7.4

$$$$
>  <compound>
Cc1c(C(=O)N[C@H]2C[C@H](C(=O)O)C2)cc(-c2cc(C(=O)N[C@H](C)C(F)(F)F)cc(C3(C)CC3)c2)n1CC1CCCCC1

>  <qualifying sign>
=

>  <pIC50 (FF)>
7.4

$$$$
>  <compound>
Cc1c(S(=O)(=O)NC(C)(C)C)ccc(-c2cc(C(=O)NCCC(C)(C)C(=O)O)c(C)n2CC2CCCCC2)c1C(F)(F)F

>  <qualifying sign>
=

>  <pIC50 (FF)>
7.4

$$$$
>  <compound>
Cc1c(C(=O)NC2C[S+]([O-])C2)cc(-c2cc(C(C)C)c3c(c2)C(C)(C)N(C(C)C)S3(=O)=O)n1CC1CCCCC1 (stereo not shown)

>  <qualifying sign>
=

>  <pIC50 (FF)>
6.5

$$$$
>  <compound>
Cc1c(C(=O)NCC(C)(C)NC(=O)CO)cc(-c2cc(C(C)(C)C)c3c(c2)C2(CCO3)CC2)n1CC1CCCCC1

>  <qualifying sign>
=

>  <pIC50 (FF)>
7.7

$$$$
>  <compound>
Cc1c(C(=O)NC2COC2)cc(-c2ccc(C(=O)N(C)CC(C)(C)C)c(C(C)(C)C)c2)n1CC1CCCCC1

>  <qualifying sign>
=

>  <pIC50 (FF)>
6.6

$$$$
>  <compound>
CC(C)(C)NS(=O)(=O)c1ccc(-c2cc(C(=O)NCC3(O)CCOCC3)c(C(F)(F)F)n2CC2CCCCC2)cc1C(C)(C)C

>  <qualifying sign>
<

>  <pIC50 (FF)>
4.7

$$$$
>  <compound>
CCc1cc(-c2cc(C(N)=O)c(C)n2CC2CCCCC2)cc2c1OCC2(C)C

>  <qualifying sign>
=

>  <pIC50 (FF)>
6.0

$$$$
>  <compound>
Cc1c(C(=O)NCC(C)(C)C(=O)O)cc(-c2ccc(S(=O)(=O)NC(C)(C)C)c(C(F)(F)F)c2)n1CC1CCCCC1

>  <qualifying sign>
=

>  <pIC50 (FF)>
6.9

$$$$
>  <compound>
Cc1c(C(=O)NC2COC2)cc(-c2cc(C(C)(C)C)nc(C(C)(C)C)c2)n1CC1CCCCC1

>  <qualifying sign>
=

>  <pIC50 (FF)>
7.0

$$$$
>  <compound>
Cc1c(C(=O)NC2CCOCC2)cc(-c2ccc(S(=O)(=O)NC(C)(C)C)c(F)c2)n1CC1CCCCC1

>  <qualifying sign>
=

>  <pIC50 (FF)>
6.9

$$$$
>  <compound>
Cc1c(C(=O)NCC(C)(C)C(=O)O)cc(-c2ccc(S(=O)(=O)NC(C)(C)C)c(OC(F)(F)F)c2)n1CC1CCCCC1

>  <qualifying sign>
=

>  <pIC50 (FF)>
7.3

$$$$

---

assayed system: RORγ ligand binding domain (LBD) (Homo sapiens, UniProt P51449)
Construct: made in house; host or cells: E. coli BL-21 (BL3), vector pDEST15
Sequence (P51449 269-508 limits assumed): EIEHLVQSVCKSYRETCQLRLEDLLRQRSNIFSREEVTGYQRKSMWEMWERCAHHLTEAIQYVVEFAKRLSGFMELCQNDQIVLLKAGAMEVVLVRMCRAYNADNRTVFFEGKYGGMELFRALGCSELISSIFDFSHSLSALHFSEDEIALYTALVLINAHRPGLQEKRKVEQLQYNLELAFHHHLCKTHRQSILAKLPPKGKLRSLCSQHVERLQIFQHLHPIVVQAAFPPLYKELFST
test method notes: TR-FRET Activity Assay (ligand sensing, RORγ-LBD / coactivator peptide interaction, LANCE)
Type: biochemical
stated conditions: first value of the cell FRET/FF/REN; TR-FRET activity assay; read-out: pIC50 (FRET) (converted)
Criterion: IC50 strictly less than 1 µM. Met: y. Not met: n.

>  <compound>
COC1(c2cc(-c3cc(C(=O)NC4CCOCC4)c(C)n3CC3CCCCC3)ccc2S(=O)(=O)NC(C)(C)C)CC1 [17/164]

>  <class>
n

$$$$
>  <compound>
Cc1c(C(=O)NC2CCOCC2)cc(-c2ccc(S(=O)(=O)NC(C)(C)C)c(C(F)(F)F)c2)n1CC1CC(F)(F)C1 [17/133]

>  <class>
n

$$$$
>  <compound>
Cc1c(C(=O)NC2CCOCC2)cc(-c2ccc(S(=O)(=O)N3CCCC3(C)C)c(C(F)(F)F)c2)n1CC1CCCCC1 [17/84]

>  <class>
n

$$$$
>  <compound>
Cc1c(C(=O)NC2CCOCC2)cc(-c2ccc(S(=O)(=O)NC(C)(C)C)c(C(F)(F)F)n2)n1CC1CCCCC1 [17/245]

>  <class>
n

$$$$
>  <compound>
Cc1c(C(=O)NCC2CCN(S(C)(=O)=O)CC2)cc(-c2cc(C(C)(C)C)cc(C3(C)CC3)c2)n1CC1CCCCC1 [17/345]

>  <class>
y

$$$$
>  <compound>
Cc1c(C(=O)NC2CCOCC2)cc(-c2cc(C(F)(F)F)c3c(c2)C(C)(C)C(=O)N3C)n1CC1CCCCC1 [17/148]

>  <class>
y

$$$$
>  <compound>
Cc1c(C(=O)NCC(C)(C)NS(C)(=O)=O)cc(-c2ccc(S(=O)(=O)NC(C)(C)C)c(C(C)(C)C)c2)n1CC1CCCCC1 [1/123]

>  <class>
y

$$$$
>  <compound>
Cc1c(C(=O)NC2CCOCC2)cc(-c2cc(NCC(C)(C)C)nc(C(F)(F)F)c2)n1CC1CCCCC1 [17/159]

>  <class>
n

$$$$
>  <compound>
Cc1c(C(=O)NC2COC2)cc(-c2cc(C(C)(C)C)c(F)c(C(C)(C)C)c2)n1CC1CCCCC1 [1/77]

>  <class>
y

$$$$
>  <compound>
Cc1c(C(=O)NCC(C)(C)C(=O)O)cc(-c2cc(C(C)(C)C)nc(C(C)(C)C)n2)n1CC1CCCCC1 [17/353]

>  <class>
n

$$$$
>  <compound>
Cc1c(C(=O)NC2CCOCC2)cc(-c2ccc(S(=O)(=O)N3CCCCC3(C)C)c(C(F)(F)F)c2)n1CC1CCCCC1 [17/69]

>  <class>
n

$$$$
>  <compound>
Cc1c(C(=O)N2CC3(CCS(=O)(=O)CC3)C2)cc(-c2ccc(S(=O)(=O)NC(C)(C)C)c3ccccc23)n1CC1CCCCC1 [17/270]

>  <class>
y

$$$$
>  <compound>
Cc1c(C(=O)NCC(C)(C)C(N)=O)cc(-c2ccc(S(=O)(=O)NC(C)(C)C)c(C(F)(F)F)c2)n1CC1CCCCC1 [17/202]

>  <class>
y

$$$$
